measurement description: AUC (0 to 6 hrs) in Sprague-Dawley rat at 10 mg/kg, po
Type: ADME, organism-based
Set-up: time < 6 hr, dose 10 mg/kg, route oral
measurement conditions: plasma
property: AUC(0-t) at 6 h (µM·h)

Illustrative cases are given below, each with its answer.
structure as smiles | endpoint unit | AUC(0-t) at 6 h
CC(C)NS(=O)(=O)c1ccc(-c2c(C#N)c3ccc(C4CC4)cc3n2C2CCC2)nc1 | µM·h | 0.964
N#Cc1c(-c2ccc(S(=O)(=O)NC(CF)CF)cn2)n(C2CCC2)c2cc(C3CC3)ccc12 | µM·h | 6.2

I = CC(C)NS(=O)(=O)c1ccc(-c2c(C#N)c3ccc(OC(F)F)cc3n2C2CCC2)nc1
II = N#Cc1c(-c2ccc(S(=O)(=O)NC(CF)CF)cn2)n(C2CCC2)c2cc(OC(F)F)ccc12
I would appreciate it if you could say which entry, I or II , has the lower AUC(0-t) at 6 h value. Which one? Tell me its label.
I
(I: 0.579 µM·h, II: 3.42 µM·h)

Source listed as ChEMBL document CHEMBL2396606.
